Reported boiling point by item:
Quick reminder: number only, in °C, skip the unit.

c1ccc2c(c1)ccc1ncccc12 : 352
C#CC(C)(O)c1ccccc1 (configuration not stated) : 218
CC(C)(O)C(Cl)(Cl)Cl : 167
CCCCCCC(=O)OCCC : 208

Okay, next one:
Query: Give the reported value of boiling point for this record: CCOCC1CO1 (configuration not stated)
Result: 128

###

Friendly reminder: melting point below 50 °C is 1.0, at or above is 0.0.

The examples below pair each entry with its known result.
C[C@H](CCC(=O)NCC(=O)O)[C@H]1CC[C@H]2[C@@H]3[C@H](O)C[C@@H]4C[C@H](O)CC[C@]4(C)[C@H]3C[C@H](O)[C@]12C : 0.0
CCCC(C)(O)CCC : 1.0

Query: Consider c1cc2c(cc1O[C@H]1OC[C@H]3[C@@H]1CO[C@@H]3c1ccc3c(c1)OCO3)OCO2 . Does its melting point lie strictly below 50 °C?
Result: 0.0

Query: Consider C[C@@H](N)[C@@H](O)c1ccccc1 . Does its melting point lie strictly below 50 °C?
Result: 0.0

Query: Consider CCOc1cc(OCC)cc(OCC)c1 . Does its melting point lie strictly below 50 °C?
Result: 1.0

Query: Consider CN1CCN(C(c2ccccc2)c2ccccc2)CC1 . Does its melting point lie strictly below 50 °C?
Result: 0.0

Query: Consider CC(C)CN . Does its melting point lie strictly below 50 °C?
Result: 1.0

Query: Consider c1ccc(CNCc2ccccc2)cc1 . Does its melting point lie strictly below 50 °C?
Result: 1.0

Query: Consider CCC(c1ccccc1)c1c(O)c2ccccc2oc1=O (stereo unspecified) . Does its melting point lie strictly below 50 °C?
Result: 0.0

Query: Consider CCC1Nc2cc(Cl)c(S(N)(=O)=O)cc2S(=O)(=O)N1 (stereo unspecified) . Does its melting point lie strictly below 50 °C?
Result: 0.0

Query: Consider C/C=C/C=C/CCCCCCCO . Does its melting point lie strictly below 50 °C?
Result: 1.0

Query: Consider FC(F)(Br)Br . Does its melting point lie strictly below 50 °C?
Result: 1.0

Query: Consider Cc1ccc(S(=O)(=O)Nc2ccccc2C)cc1 . Does its melting point lie strictly below 50 °C?
Result: 0.0

Query: Consider COC(=O)c1ccc(Br)cc1 . Does its melting point lie strictly below 50 °C?
Result: 0.0

Query: Consider CCCCCC(=O)Cl . Does its melting point lie strictly below 50 °C?
Result: 1.0

Query: Consider Nc1ccc2c(n1)[nH]c1ccccc12 . Does its melting point lie strictly below 50 °C?
Result: 0.0

Query: Consider c1cnccn1 . Does its melting point lie strictly below 50 °C?
Result: 0.0

Query: Consider O=C(O)c1ccnc2ccccc12 . Does its melting point lie strictly below 50 °C?
Result: 0.0

Query: Consider COc1cc(CC(=O)O)ccc1O . Does its melting point lie strictly below 50 °C?
Result: 0.0

Query: Consider ClCOCCl . Does its melting point lie strictly below 50 °C?
Result: 1.0

Query: Consider OCCc1ccc2ccccc2n1 . Does its melting point lie strictly below 50 °C?
Result: 0.0

Query: Consider NS(=O)(=O)c1ccc(SCCO)cc1 . Does its melting point lie strictly below 50 °C?
Result: 0.0

Query: Consider Oc1c(Cl)cc(Cl)cc1Br . Does its melting point lie strictly below 50 °C?
Result: 0.0

Query: Consider CC(C)(CC(=O)O)CC(=O)O . Does its melting point lie strictly below 50 °C?
Result: 0.0

Query: Consider O=[N+]([O-])c1cccc(CO)c1 . Does its melting point lie strictly below 50 °C?
Result: 1.0

Query: Consider CC[B]CC . Does its melting point lie strictly below 50 °C?
Result: 1.0

###

Friendly reminder: melting point below 40 °C is Fulfilled, at or above is Not fulfilled.

The examples below pair each entry with its known result.
CCCCCCCCCF : Fulfilled
CCCC(O)CC/C=C/C=C/C#CC#C/C=C/CO (stereo unspecified) : Not fulfilled
COc1cc(N)ccc1C : Not fulfilled
C=CCBr : Fulfilled
Nc1ccc(S(=O)c2ccc(N)cc2)cc1 : Not fulfilled

Query: Consider O=C1OC(c2ccc(O)c3ccccc23)(c2ccc(O)c3ccccc23)c2ccccc21 . Does its melting point lie strictly below 40 °C?
Result: Not fulfilled

###

Measured Property: melting point (°C)
Quick reminder: number only, in °C, skip the unit.

As a guide, the following entries are already answered.
FC(F)(F)c1cccc(Cl)c1 : -56
CCc1ccccc1-n1c(C)nc2ccccc2c1=O : 81
CC(C)=CCC[C@@H](C)[C@H]1CC[C@@]2(C)C3=C(CC[C@]12C)[C@@]1(C)CC[C@H](O)C(C)(C)[C@@H]1CC3 : 140
Cc1ccc(Sc2ccc(C)cc2)cc1 : 57.3
Ic1cn[nH]c1 : 109

Query: Give the reported value of melting point for this record: C=C1CC[C@H](O)C/C1=C/C=C1\CCC[C@]2(C)[C@@H]([C@H](C)/C=C/[C@H](C)C(C)C)CC[C@@H]12
Result: 116

Query: Give the reported value of melting point for this record: CCCCCCC(CCCCCC)CCCCCC
Result: -28.3

Query: Give the reported value of melting point for this record: C[C@]12CC[C@H]3[C@@H](CCC4=CC(=O)CC[C@@]43C)[C@@H]1CC[C@@H]2C(=O)CO
Result: 142

Query: Give the reported value of melting point for this record: Cc1cc(O)cc(C)c1Cl
Result: 115

###

Hi, to clarify the labels: 1 (yes) covers log10 vapour pressure (mmHg) from -3 upward, 0 (no) covers anything below -3.

The examples below pair each entry with its known result.
CC(F)(Cl)Cl : 1 (yes)
Cc1ccccc1O : 1 (yes)
c1ccc(-c2c3ccccc3c(-c3ccccc3)c3ccccc23)cc1 : 0 (no)
FC(F)(F)COCC(F)(F)F : 1 (yes)
CC(C)CC(C)O (centres undefined) : 1 (yes)
CC(C)(C)c1ccc(CSc2cnn(C(C)(C)C)c(=O)c2Cl)cc1 : 0 (no)

Query: Record CCOC(=O)CCCC(=O)OCC ; criterion: log10 vapour pressure (mmHg) no lower than -3. Met?
Result: 1 (yes)

###

Reported melting point by item:
Please answer using a numeric value trailed by its unit.

As a guide, the following entries are already answered.
C=CCOC(=O)OCCOCCOC(=O)OCC=C : -4 °C
CC(C)C1(C)N=C(c2nc3ccccc3cc2C(=O)O)NC1=O (stereo not given) : 221 °C
O=C(NCCO[N+](=O)[O-])c1cccnc1 : 92.5 °C
CCOC(=O)CCCCCC(=O)OCC : -24 °C
OCC(Br)(Br)Br : 81 °C

Query: Give the reported value of melting point for this record: CCCCCCCCC(Br)C(=O)O (stereo not given)
Result: 4 °C

###

Friendly reminder: melting point below 30 °C is true, at or above is false.

CC[C@@H](CO)NCCN[C@@H](CC)CO : false
CC(=O)c1ccc[nH]1 : false
CC(C)[C@@H](C)C(=O)O : true
O=C(O)C(Cl)=C(Cl)Cl : false
CCOOCC : true
CN(Cc1cc(Br)cc(Br)c1N)C1CCCCC1 : false
N#Cc1ccnc2ccccc12 : false
O=C(O)[C@H]1CC[C@H](C(=O)O)CC1 : false
CCCCCCF : true
Cc1cc(Br)cc([N+](=O)[O-])c1 : false

Query: Consider ClC=C(Cl)C(Cl)=CCl . Does its melting point lie strictly below 30 °C?
Result: true

Query: Consider Cc1ccc(O)cc1Cl . Does its melting point lie strictly below 30 °C?
Result: false

###

Measured Property: melting point (°C)
Quick reminder: number only, in °C, skip the unit.

As a guide, the following entries are already answered.
OC[C@@H]1CCCNC1 : 61
CCCCC[C@H](O)/C=C/[C@H]1[C@H](O)CC(=O)[C@@H]1C/C=C\CCCC(=O)O : 67
C=C(C)C(C)(C)CC : -69
C#C[C@]1(O)CC[C@H]2[C@@H]3CCc4cc(O)ccc4[C@H]3CC[C@@]21C : 183
CCOc1ccc(NC(N)=O)cc1 : 174
CC1=CCC2CC1C2(C)C (racemic) : -60.5
CCCCCCC(=O)OCCC : -63.5
Cc1c(C)c(Br)c(Br)c(Br)c1Br : 262
COc1cc(-c2ccc(N=C=O)c(OC)c2)ccc1N=C=O : 114
ClCc1cccc(CCl)c1 : 34.2

Query: Give the reported value of melting point for this record: N#CCCC#N
Result: 54.5

Query: Give the reported value of melting point for this record: CC(C)c1ccc(Cl)cc1
Result: -12.3

Query: Give the reported value of melting point for this record: Clc1c(Cl)c(Cl)c2c(c1Cl)Oc1c(Cl)c(Cl)c(Cl)c(Cl)c1O2
Result: 330

Query: Give the reported value of melting point for this record: CC(CC1CCCCC1)CC1CCCCC1
Result: 0.6

Query: Give the reported value of melting point for this record: CCCN(CCC)c1c([N+](=O)[O-])cc(C)cc1[N+](=O)[O-]
Result: 80
